FYI, the data here is from patent US9073918B2.

Biological target: cellular TGF-β R1 ALK5 (Homo sapiens)
Assay: Cellular inhibition of ALK5 (CellSensor SBE-bla HEK 293T beta-lactamase reporter)
Conditions: cellular inhibition of ALK5, SBE-bla HEK 293T cells, TGFb-1 stimulated 5 hours; average where measured in multiple experiments
Protocol: Test compounds were screened for cellular TGF-β R1 ALK5 inhibition by use of a CellSensor® SBE-bla HEK 293T (K1550, Invitrogen Corp. Madison, Wis.) cell line. […] The following day 5 uL of 10×, 2.5-fold serially diluted test compounds in DMSO were added into cells to a final compound concentration of 1× and DMSO concentration of 0.5%. […] Assay was measured using Spectramax, a bottom-read fluorescence plate reader, at excitation setting of 405 nm and emission settings of 460 nm and 530 nm. […]
Lab note: cut-off is 0.05 µM. Strictly less in IC50 is rule met. Exactly 0.05 µM or more is rule not met.

Before answering, review these 4 worked examples.
# Chemical Structure, Label Value
records = [
    ("Cc1ccc(F)c(-c2cc(Nc3ccnc4cn(C)nc34)c(C)cn2)n1", "rule not met"),
    ("Cc1cnc(-c2cc(F)ccc2F)cc1Nc1ccnc2cnn(C(=O)NC(C)C)c12", "rule not met"),
    ("Cc1ccc(F)c(-c2cc(Nc3ccnc4cn(CCC(C)(C)O)nc34)ccn2)n1", "rule not met"),
    ("CNC(=O)n1ncc2nccc(Nc3cc(C)nc(-c4cc(Cl)ccc4F)c3)c21", "rule not met"),
]

QUERY: Does the reported IC50 of `CNC(=O)Cn1cc2nccc(Nc3cc(-c4cc(F)ccc4F)ncc3C)c2n1` stay below 0.05 µM?
RESULT: rule not met

QUERY: Does the reported IC50 of `Cc1cccc(-c2cc(Nc3ccnc4cn[nH]c34)c(C)cn2)n1` stay below 0.05 µM?
RESULT: rule met

----------
Target sequence: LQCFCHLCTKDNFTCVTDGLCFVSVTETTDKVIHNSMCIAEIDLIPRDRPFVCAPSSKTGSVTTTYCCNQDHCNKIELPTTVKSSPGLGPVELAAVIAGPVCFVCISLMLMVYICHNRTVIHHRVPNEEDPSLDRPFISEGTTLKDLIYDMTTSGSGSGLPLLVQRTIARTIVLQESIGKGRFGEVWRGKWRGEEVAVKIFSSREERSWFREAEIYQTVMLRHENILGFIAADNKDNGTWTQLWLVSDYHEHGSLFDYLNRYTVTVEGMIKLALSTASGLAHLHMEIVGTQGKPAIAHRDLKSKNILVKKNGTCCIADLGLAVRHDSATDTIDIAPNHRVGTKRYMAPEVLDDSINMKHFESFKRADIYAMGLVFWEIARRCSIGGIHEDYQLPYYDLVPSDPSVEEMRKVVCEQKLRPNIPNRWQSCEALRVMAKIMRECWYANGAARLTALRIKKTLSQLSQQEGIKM
Lab note: cut-off is 0.03 µM. Strictly less in IC50 is 1. Exactly 0.03 µM or more is -1.

# Compound, Label Value
data = [
    ("Cc1cnc(-c2cc(F)ccc2F)cc1Nc1ccnc2cn(CC(C)O)nc12 (centres unmarked)", 1),
]

QUERY: Does the reported IC50 of `Cc1ccc(F)c(-c2cc(Nc3ccnc4cn([C@H]5CCOC5)nc34)c(C)cn2)n1` stay below 0.03 µM?
RESULT: 1

QUERY: Does the reported IC50 of Cc1ccc(F)c(-c2cc(Nc3c(F)cnc4cnn(C[C@H](C)O)c34)ccn2)n1 [Example 100B] stay below 0.03 µM?
RESULT: -1

QUERY: Does the reported IC50 of `Cc1cnc(-c2cc(Cl)ccc2F)cc1Nc1ccnc2cn[nH]c12` stay below 0.03 µM?
RESULT: -1
